Entry source: patent US20140128385A1

Biological target: BACE-2 (Homo sapiens)
Construct: Recombinant BACE-2 (extracellular domain, expressed in baculovirus and purified using standard methods)
Sequence (Q9Y5Z0 63-473 limits assumed): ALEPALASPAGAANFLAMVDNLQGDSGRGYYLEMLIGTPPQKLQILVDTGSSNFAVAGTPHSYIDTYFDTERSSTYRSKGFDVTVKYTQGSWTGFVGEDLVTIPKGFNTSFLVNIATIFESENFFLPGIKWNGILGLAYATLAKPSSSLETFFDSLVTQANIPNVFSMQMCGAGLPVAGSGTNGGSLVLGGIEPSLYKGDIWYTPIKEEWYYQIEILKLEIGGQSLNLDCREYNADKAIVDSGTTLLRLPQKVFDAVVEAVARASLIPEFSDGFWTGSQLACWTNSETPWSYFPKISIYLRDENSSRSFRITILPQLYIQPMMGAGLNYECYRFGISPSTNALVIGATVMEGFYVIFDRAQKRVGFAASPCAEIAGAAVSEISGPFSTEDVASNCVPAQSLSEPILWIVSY
Assay: assay for inhibition of BACE-2
pIC50: −log10 of the molar value. Structures can show the parent of a compound that is named as a salt.
Lab note: compare pIC50 against 7. Equal or greater, write 1. Smaller, write -1.

Could you tell me if the measured pIC50 of `NC1=N[C@@](c2cc(NC(=O)c3ncc(Br)cc3O)ccc2F)(C(F)F)COC1` reaches 7 or more?
1

Given the entry COc1cnc(C(=O)Nc2cccc(C3(C)COCC(N)=N3)c2)cn1 (centres unmarked) [Example 18, hydrochloride] , answer whether its pIC50 meets or surpasses 7.
-1

Check the entry COCC(=O)N1CC(N)=NC(c2cc(NC(=O)c3ncc(Br)cc3C)ccc2F)(C(F)F)C1 (centres unmarked) : does pIC50 equal or exceed 7?
1

Is the recorded value of pIC50 equal to or greater than 7 for this compound? NC1=NC(c2cccc(NC(=O)c3ncc(C(F)(F)F)cc3Cl)c2)(C(F)F)COC1 (centres unmarked)
-1

Decide: is the reported value of pIC50 for C[C@@H]1OC[C@](c2cc(NC(=O)c3ccc(C#N)cn3)ccc2F)(C(F)F)N=C1N (relative stereo) [Example 76, hydrochloride] equal to or greater than 7?
-1

Hello, I need to know if NC1=NC(c2cccc(NC(=O)c3ccc(O)nn3)c2)(C(F)F)COC1 (centres unmarked) has measured pIC50 not below 7. Thanks!
-1

Is pIC50 for COc1cc(Br)cnc1C(=O)Nc1ccc(F)c(C2(C)N=C(N)COCC2(F)F)c1 (centres unmarked) at or above 7?
1

// inclusive: pIC50 at least 7? input: NC1=N[C@@](c2cc(NC(=O)c3ncc(Cl)cc3N)ccc2F)(C(F)F)COC1 [Example 160, hydrochloride]
1

Quick check, pIC50 >= 7? `CCOc1ccc(C(=O)Nc2ccc(F)c([C@]3(C(F)F)COCC(N)=N3)c2)nc1`
-1

Check this compound for pIC50 at or above 7: C[C@@]1(c2cc(NC(=O)c3ncc(C#N)cc3Cl)ccc2F)CO[C@@](C)(C(F)(F)F)C(N)=N1 [Example 231, hydrochloride]
1

Say whether CC1(c2cccc(NC(=O)c3cnc(-n4ccc(C(F)(F)F)n4)cn3)c2)COCC(N)=N1 (centres unmarked) [Example 15, hydrochloride] shows pIC50 of 7 or more.
-1

I'd appreciate it if you could say whether NC1=NC(c2cc(NC(=O)c3ccc(Cl)cn3)ccc2F)(C(F)F)COC1 (centres unmarked) has pIC50 at least equal to 7.
1

Could you verify whether the entry `NC1=N[C@@](c2cc(NC(=O)c3cc4cccn4cn3)ccc2F)(C(F)F)COC1` shows pIC50 of no less than 7?
-1

Does the compound `Cc1cc(Cl)cnc1C(=O)Nc1ccc(F)c([C@]2(C(F)F)COCC(N)=N2)c1` have recorded pIC50 that is 7 or more?
1

Is it the case that `C[C@@]1(c2cc(NC(=O)c3ncc(C(F)F)nc3N)ccc2F)CO[C@@](C)(C(F)(F)F)C(N)=N1` has pIC50 reaching or exceeding 7?
1

Check if pIC50 >= 7 (inclusive). Item: CC1(c2cccc(NC(=O)c3ccc(O)nn3)c2)COCC(N)=N1 (centres unmarked) [Example 12, hydrochloride]
-1

Determine whether this compound has pIC50 no lower than 7: `CC(C)Oc1cnc(C(=O)Nc2ccc(F)c([C@]3(C(F)F)COCC(N)=N3)c2)cn1`
-1
